The reported measurements were obtained from ChEMBL document CHEMBL2413072.

System: NCI-H522
assay.remarks: Growth inhibition of human NCI-H522 cells assessed as cell growth at 10^-4 M by sulforhodamine B assay
Type: functional
condition.summary: read-out: Activity
quantity: growth at 100 µM (%)
Answer in %, number only, no unit symbol.

// worked examples, growth at 100 µM included
CC(C)=CC(=O)O[C@@H]1CC(C)(C)C[C@H]2C3=CC[C@@H]4[C@@]5(C)CCC(=O)C(C)(C)[C@@H]5CC[C@@]4(C)[C@]3(C)CC[C@@]12C(=O)O = -20
CC1(C)C[C@@H](O)[C@]2(C(=O)O)CC[C@]3(C)C(=CC[C@@H]4[C@@]5(C)C/C(=C\C=C\c6ccccc6)C(=O)C(C)(C)[C@@H]5CC[C@]43C)[C@@H]2C1 = -86
C/C=C(/C)C(=O)O[C@@H]1CC(C)(C)C[C@H]2C3=CC[C@@H]4[C@@]5(C)CCC(=O)C(C)(C)[C@@H]5CC[C@@]4(C)[C@]3(C)CC[C@@]12C(=O)O = -4

Please look up its growth at 100 µM: CC(C)=CC(=O)O[C@@H]1CC(C)(C)C[C@H]2C3=CC[C@@H]4[C@@]5(C)CC[C@H](O)C(C)(C)[C@@H]5CC[C@@]4(C)[C@]3(C)CC[C@@]12C(=O)O
-64

Now try C/C=C(/C)C(=O)O[C@@H]1CC(C)(C)C[C@H]2C3=CC[C@@H]4[C@@]5(C)CC[C@H](O)C(C)(C)[C@@H]5CC[C@@]4(C)[C@]3(C)CC[C@@]12C(=O)O .
-66
